Documented kon across a set of binders
- experimental_system: T1, recombinant human IL-6 (human, UniProt P05231 30-212)
- T1 construct: Flowed in solution over the captured antibodies
- T1 sequence (P05231 30-212 limits assumed): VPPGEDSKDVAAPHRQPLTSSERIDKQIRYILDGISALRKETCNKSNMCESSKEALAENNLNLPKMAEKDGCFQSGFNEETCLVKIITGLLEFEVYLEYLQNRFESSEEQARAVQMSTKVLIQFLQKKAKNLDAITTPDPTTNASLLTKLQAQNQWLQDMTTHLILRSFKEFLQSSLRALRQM
- assay_explanation: SPR (Biacore), supernatant IgG on Protein A, 25 C
I only need the number, in M⁻¹ s⁻¹, no unit after it.

{"columns": ["binder", "kon [M⁻¹ s⁻¹]"],
 "data": [
  ["anti-IL-6 antibody, heavy chain S56R, light chain WT (antibody, IgG1, V domains shown, Full IgG1 tested; V domains derived as in m2) VH: EVQLVESGGGLVQPGGSLRLSCAASGFTFSPFAMSWVRQAPGKGLEWVAKISPGGRWTYYSDTVTGRFTFSLDTSKSTAYLQMNSLRAEDTAVYYCARQLWGYYALDIWGQGTLVTVSS VL: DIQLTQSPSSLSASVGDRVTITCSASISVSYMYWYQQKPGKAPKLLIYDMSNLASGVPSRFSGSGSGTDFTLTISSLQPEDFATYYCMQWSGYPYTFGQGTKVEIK", 273000],
  ["anti-IL-6 antibody, heavy chain WT, light chain A25T (antibody, IgG1, V domains shown, Full IgG1 tested; V domains derived as in m2) VH: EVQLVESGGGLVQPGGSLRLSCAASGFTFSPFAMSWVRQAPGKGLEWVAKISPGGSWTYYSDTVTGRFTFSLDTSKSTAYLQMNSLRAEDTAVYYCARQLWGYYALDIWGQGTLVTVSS VL: DIQLTQSPSSLSASVGDRVTITCSTSISVSYMYWYQQKPGKAPKLLIYDMSNLASGVPSRFSGSGSGTDFTLTISSLQPEDFATYYCMQWSGYPYTFGQGTKVEIK", 508000],
  ["anti-IL-6 antibody, heavy chain WT, light chain S24V (antibody, IgG1, V domains shown, Full IgG1 tested; V domains derived as in m2) VH: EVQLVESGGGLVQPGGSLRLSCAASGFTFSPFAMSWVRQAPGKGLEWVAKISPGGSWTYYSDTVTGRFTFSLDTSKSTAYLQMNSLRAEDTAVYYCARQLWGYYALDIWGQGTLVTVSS VL: DIQLTQSPSSLSASVGDRVTITCVASISVSYMYWYQQKPGKAPKLLIYDMSNLASGVPSRFSGSGSGTDFTLTISSLQPEDFATYYCMQWSGYPYTFGQGTKVEIK", 340000],
  ["anti-IL-6 antibody, heavy chain T58K, light chain WT (antibody, IgG1, V domains shown, Full IgG1 tested; V domains derived as in m2) VH: EVQLVESGGGLVQPGGSLRLSCAASGFTFSPFAMSWVRQAPGKGLEWVAKISPGGSWKYYSDTVTGRFTFSLDTSKSTAYLQMNSLRAEDTAVYYCARQLWGYYALDIWGQGTLVTVSS VL: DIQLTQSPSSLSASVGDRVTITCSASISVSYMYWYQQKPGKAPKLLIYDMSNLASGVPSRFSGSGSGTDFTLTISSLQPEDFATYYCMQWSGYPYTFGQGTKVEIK", 460000]
]}

The record that follows has no kon shown yet.
Return reported kon; argument: anti-IL-6 antibody, heavy chain WT, light chain S28R (antibody, IgG1, V domains shown, Full IgG1 tested; V domains derived as in m2) VH: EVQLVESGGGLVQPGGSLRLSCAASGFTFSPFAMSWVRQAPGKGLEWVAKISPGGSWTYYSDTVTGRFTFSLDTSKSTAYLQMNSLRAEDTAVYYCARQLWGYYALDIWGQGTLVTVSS VL: DIQLTQSPSSLSASVGDRVTITCSASIRVSYMYWYQQKPGKAPKLLIYDMSNLASGVPSRFSGSGSGTDFTLTISSLQPEDFATYYCMQWSGYPYTFGQGTKVEIK
369000

Provenance of the data: patent US20240209076A1
